Measured inhibition at 10 µM by item
target_of_assay: ABHD12 (Mus musculus)
Construct: from tissue; host or cells: brain membrane proteome
Sequence (Q99LR1 whole entry): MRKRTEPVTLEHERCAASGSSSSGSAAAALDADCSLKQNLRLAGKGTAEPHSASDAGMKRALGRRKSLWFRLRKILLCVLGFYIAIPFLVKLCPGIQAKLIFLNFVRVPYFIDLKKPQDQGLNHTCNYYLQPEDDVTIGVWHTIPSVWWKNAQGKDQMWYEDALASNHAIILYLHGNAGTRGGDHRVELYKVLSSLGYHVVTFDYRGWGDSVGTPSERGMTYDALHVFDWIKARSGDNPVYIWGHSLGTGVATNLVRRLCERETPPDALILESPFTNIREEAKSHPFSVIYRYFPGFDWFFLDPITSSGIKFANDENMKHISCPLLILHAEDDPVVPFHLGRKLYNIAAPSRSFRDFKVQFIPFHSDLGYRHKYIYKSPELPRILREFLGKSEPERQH
assay_comment: Gel-based competitive ABPP, JJH350 probe vs brain membrane proteome
Format: biochemical
protocol_conditions: 10 μM compound, read-out: % Inhibition @ 10 μM (ABPP gel_JJH350 probe vs brain mem)

Check out these entries, answers already filled in.
FC(F)(F)c1ccc(Oc2ccnc(N3CCC(NC(=S)Nc4cccnc4)CC3)c2)cc1 : ≥ 75%
S=C(Nc1cccnc1)NC1CCN(c2ccc(Cl)nc2)CC1 : 0 to 25%
FC(F)(F)Oc1cccc(Oc2ccnc(N3CCC(NC(=S)Nc4cccnc4)CC3)c2)c1 : ≥ 75%

Incoming: I'd like to know its inhibition at 10 µM. The molecule in question is FC(F)(F)c1cnc(N2CCC(NC(=S)Nc3cccnc3)CC2)nc1
Outgoing: 50 to 75%

Incoming: I'd like to know its inhibition at 10 µM. The molecule in question is FC(F)(F)CCCOc1ccnc(N2CCC(NC(=S)Nc3cccnc3)CC2)c1
Outgoing: ≥ 75%

Incoming: I'd like to know its inhibition at 10 µM. The molecule in question is S=C(Nc1cccnc1)NC1CCN(c2ccc(Cl)cn2)CC1
Outgoing: ≥ 75%

Incoming: I'd like to know its inhibition at 10 µM. The molecule in question is CC(C)OC(=O)N1CCC(Oc2ccnc(N3CCC(NC(=S)Nc4cccnc4)CC3)c2)CC1
Outgoing: 50 to 75%

Incoming: I'd like to know its inhibition at 10 µM. The molecule in question is FC(F)(F)Oc1ccc(Oc2ccnc(N3CCC(NC(=S)Nc4cccnc4)CC3)c2Cl)cc1
Outgoing: ≥ 75%
